# experiment-summary: NCI Yeast Anticancer Drug Screen. Data for the mec2-1 strain (AID 157)
# condition-details: S. cerevisiae mec2-1 strain, active compounds read high; at 50.0 µM unless noted
The panel holds about 79,000 compounds, 15% with a hit somewhere; the sample as a whole holds those more often. The source made the active and inactive calls. No stated cut-off is given here; in the data, active means growth inhibition above about 70%; inactive means the rest. Where a SMILES comes first, the peptide text is derived from it. [ ]: non-standard residue; d: D form. The star is where a group is joined. Cbz = O=C(OCc1ccccc1)*; Nva = CCC[CH](N)C(=O)O
assay-metric: growth inhibition

# growth inhibition (molecule: O=C(Cc1ccccc1)C(c1ccccc1)C(c1ccccc1)c1ccccc1 (centres undefined) ) is -11.8% (inactive)

Summary for this molecule, O=C(CCCn1ccnc1[N+](=O)[O-])NCCn1cnc([N+](=O)[O-])n1 : growth inhibition is 17.2% (inactive)

Recorded result, CCSc1nnc(SCC)c2c1ncn2CC , growth inhibition: 5.8% (inactive)

Recorded growth inhibition (molecule O=C(O)CCC(=O)CCC(=O)O ): -8.85% (inactive)

Reported growth inhibition for CCCC(NC(=O)OCc1ccccc1)C(=O)NC(CC(C)C)C(N)=O (centres undefined) (Cbz-[Nva]-Leu-NH2; configuration not given here) was 2.35% (inactive)

Entry CSc1nc(C)cc(Nc2ccc(O)c(CN3CCCCC3)c2)n1 — recorded growth inhibition = -20.3% (inactive)

Recorded result, CC(C)(CO)N=Cc1ccccc1O , growth inhibition: -1.6% (inactive)

// field: growth inhibition; key: CCC(C)(C)NC(N)=O ; value = 22.6% (inactive)

Memo: OCCCC(O)CCC(O)CCC(O)CCCO (centres undefined) , reported growth inhibition: -20.1% (inactive)

# growth inhibition (molecule: O=C(NO)Nc1ccccc1Cl ) is 9.45% (inactive)

Briefly, growth inhibition measured for O=C1C2=C(C(=O)C3=C1C1CCC3C1)C1CCC2C1 : -34.1% (inactive)

Noted for COc1cccc2cc3c(cc12)C(=O)C(C)=C(C)C3=O : its growth inhibition reads -3.6% (inactive)

Lab note: measured growth inhibition of Cc1ccc(N(C)S(=O)(=O)c2ccccc2[N+](=O)[O-])cc1 was -17.6% (inactive)

What the record says about CC(=O)C(C(C)=O)=C1CCCC(O)O1 (centres undefined) : growth inhibition is -0.7% (inactive)

growth inhibition reported for this molecule CN(C)C(=S)Oc1c([N+](=O)[O-])cc([N+](=O)[O-])cc1C(C)(C)C : 89.9% (active)

For reference, reported growth inhibition for O=c1cc(N2CCOCC2)n2ccccc2n1 stands at -4.15% (inactive)

For this molecule ( O=S1(=O)C(c2ccccc2)=C1c1ccccc1 ), measured growth inhibition is 6.55% (inactive)

The reported growth inhibition of the molecule CC(=O)c1ccccc1NC=O was -10.2% (inactive)

Per the record, COC(=O)[C@H]1C2CC[C@@H]3C45C[C@@H](c6ccoc6)O[C@@H]4O[C@@H](O2)C31CCC5C (some centres undefined) has growth inhibition of -18.4% (inactive)

Entry under test: Cn1c([N+](=O)[O-])cnc1CSc1nc(-c2ccccc2)no1 . Its growth inhibition was 1.8% (inactive)

// field: growth inhibition; key: NNC(=O)C(c1ccccc1)c1ccccc1 ; value = -8.95% (inactive)

Reported growth inhibition of CC(C)CCn1c(=O)c2c(ncn2C)n(C)c1=O : 20.3% (inactive)

Form field growth inhibition, entry CCCOC(=O)CCCC(=O)N(C(C)C)C(C)C : -2.7% (inactive)

Form field growth inhibition, entry O=C(NNC(=O)c1ccc2ccccc2c1)c1ccc(Cl)cc1 : -51% (inactive)

###

# experiment-summary: NCI Yeast Anticancer Drug Screen. Data for the bub3 strain (AID 167)
# condition-details: S. cerevisiae bub3 mutant strain; at 50.0 µM unless noted
Compounds without any hit were thinned out: in the full panel of roughly 79,000, 15% have a hit. The source made the active and inactive calls. No stated cut-off is given here; in the data, active means growth inhibition above about 70%; inactive means the rest.
The categories you may choose from are active, inactive

stdin: What did the test return for Cn1cnc2nc(Cl)nc(N)c21 ?
stdout: inactive

stdin: Recorded call for O=C1CCCNC(=O)N1 ?
stdout: inactive

stdin: Recorded call for C=CCc1cc2c(C)cc(=O)oc2c(C)c1OC(C)=O ?
stdout: inactive

stdin: For O=C(Nc1ccc(Br)cc1)C(Br)C(Br)c1ccccc1 (stereo not given) , what call appears in the results of this test?
stdout: active

stdin: Hey, what did the test say about CCS(=O)(=O)CC(O)CS(=O)(=O)CC ?
stdout: inactive

stdin: Test call, this molecule: Cc1nc2ccc(Br)cc2c(=O)n1-c1ccc(-c2n[nH]c(=S)n2-c2ccccc2)cc1
stdout: inactive

stdin: What did the test return for N#C/C(=C1/c2cc([N+](=O)[O-])ccc2-c2c1cc([N+](=O)[O-])cc2[N+](=O)[O-])N1CCCCC1 ?
stdout: inactive

stdin: Kindly provide the recorded test outcome for the following molecule: CCCCCCCCCC(OCC)OCC
stdout: inactive

stdin: Hey, what did the test say about CN1CC2=C(NC(=S)NC2c2ccc(Cl)cc2)/C(=C/c2ccc(Cl)cc2)C1 (stereo not given) ?
stdout: inactive

stdin: How was CCC1(C=O)C(=O)NC(=O)N1C (stereo not given) classified in this test?
stdout: inactive

###

# experiment-summary: NCI Yeast Anticancer Drug Screen. Data for the bub3 strain (AID 167)
# condition-details: S. cerevisiae bub3 mutant strain, active compounds read high; at 50.0 µM unless noted
Compounds without any hit were thinned out: in the full panel of roughly 79,000, 15% have a hit.
assay-metric: growth inhibition (%)
Write the value in % as a bare number.

Entry C(/C=C/c1ccccc1)=Nc1ccc(SSc2ccc(N=C/C=C/c3ccccc3)cc2)cc1 — recorded growth inhibition = -3.05

Notebook: Oc1ccc(Br)cc1/C=N/c1nc2ccccc2s1.Oc1ccc(Br)cc1/C=N/c1nc2ccccc2s1.[Cu] , growth inhibition read as -0.25

Record O=C(O)c1cscc1Cc1cccs1 . Reported growth inhibition: -76

The value of growth inhibition measured for the molecule O=c1[nH]c2ccc([N+](=O)[O-])cc2nc1/C(=N/Nc1ccccc1)C(O)c1ccco1 (stereo not drawn) turned out to be -10.6

Recorded growth inhibition (molecule CCN(CC)c1ccc2cc(-c3csc(-c4ccc(N(C)C)cc4)n3)c(=O)oc2c1 ): -13.1

So for CCCCC1(N=[N+]=[N-])C(=O)C2C=CC=C3c4ccccc4N(C1=O)C32 (stereo not drawn) , the logged growth inhibition turned out to be 34.7

For reference, reported growth inhibition for COC1CN(C(C)(C)C)C1 stands at 6.6

// field: growth inhibition; key: COC1OC2COc3ccccc3OC2C2C1N2C(N)=O (stereo not drawn) ; value = -2.85

Kindly note the recorded growth inhibition for COC(=O)OCCOC(=O)OC , which is 15.3

Short answer for CCOc1ccc(/C=C(\C(=O)c2ccccc2)S(=O)(=O)c2ccc(OC)cc2)cc1OC : growth inhibition was 29.6

Item: OC1(Cc2ccccc2)CCCCCC1 | growth inhibition: -0.95

// sample CCCC(C)C(=O)OCc1ccccc1 (stereo not drawn) , its growth inhibition was 6.7

Looking up CCCCCC[N+](C)(C)C , I see its growth inhibition listed as 31.3

Query CC(=O)N(c1nc2ccccc2s1)N1C(=O)c2ccccc2C1=O yields growth inhibition of -40.2

Quick note, growth inhibition for Cn1c2ccc3cc2c(=S)c2cc(ccc21)OCCOCCOCCOCCOCCO3 landed at -13.3

According to the records, this molecule CN(C)CCC(C#N)c1ccccc1 (stereo not drawn) displays growth inhibition of -3.8

# growth inhibition (molecule: Cc1ccc2c(c1)C(C(=O)N[C@@H]1C(=O)N3[C@@H]1SC(C)(C)[C@@H]3C(=O)O)OCCC2 (stereo partly drawn) ) is 0.65

The molecule COc1ccc(C(N2CCNCC2)N2CCNCC2)cc1 showed growth inhibition equal to -3.5

get_value(item= CN(C)c1ccc(C2NC(=S)NC3=C2CCCC3)cc1 (stereo not drawn) , readout=growth inhibition) returns 22.8

Please fill in: growth inhibition reported for CCN(CCO)C(=O)Nc1ccc(Cl)cc1 = 0.55

The value of growth inhibition measured for the molecule CN[C@@H]1[C@H](O)[C@H](NC)[C@H]2O[C@@]3(O)C(=O)C[C@@H](C)O[C@H]3O[C@@H]2[C@H]1O turned out to be -12.6

Memo: O=c1oc2c3ccc4ccccc4c3n(CCN3CCOCC3)c2c2ccccc12 , reported growth inhibition: -19.9

The molecule CCOC(=O)Cc1nc(/C(C#N)=C/c2ccco2)[nH]c(=O)c1C#N showed growth inhibition equal to 8.15

# growth inhibition of CC[N+]1(CC)CC[N+]2(CC1)CC[N+]1(CC[N+](CC)(CC)CC1)CC2 = 1.7

Looking up COC1(OC)CC2C(=O)N(Cc3ccccc3)C1CC2S(=O)(=O)c1ccccc1 (stereo not drawn) , I found its growth inhibition recorded as -2.3

growth inhibition recorded for this molecule, CC1(C)CC(=O)C(/C=N/C(=S)Nc2ccc(S(N)(=O)=O)cc2)=C(O)C1 , is -16.6

The molecule listed as O=C1C=CC(=O)N1c1ccnc(N2C(=O)C=CC2=O)c1 shows growth inhibition equal to 11.8

Looking up CCOC(=O)C(=O)Nc1cc(C)no1 , I see its growth inhibition listed as -25.1

Memo: CC(C)(C)NC(=O)Nc1ccc2ccccc2c1 , reported growth inhibition: -24.1

// sample Nc1nc2ncn(CCO)c2c(=O)[nH]1 , its growth inhibition was 3.35

Entry Cn1c(-c2csc(-c3ccc(Cl)cc3)n2)n[nH]c1=S — recorded growth inhibition = 6.35

growth inhibition measured on O=C(/C(=C1\SS/C(=C(/C(=O)c2ccccc2)c2ccccc2)S1)c1ccccc1)c1ccccc1 = 5.75

For record Nc1ncc(C(=O)O)s1 the listed growth inhibition is 3.35

C/C=C(\C)c1cc(=O)c2c(C)cc3c(c2o1)C(OC)(OC(C)=O)c1c(O)c(C2CC(C)(N(C)C)C(OC(C)=O)C(C)O2)cc(C2CC(N(C)C)C(OC(C)=O)C(C)O2)c1C3=O (stereo not drawn) yielded growth inhibition of -21.6

Please fill in: growth inhibition reported for CCN(CC)C(=O)Oc1cccc(NC(=O)OC)c1 = 49.2

Documented growth inhibition of CCCCCCCCCCCCCCCCCCOc1ccccn1 : -17.9

growth inhibition in this record for C1=C(Nc2ccccc2)C(=Nc2ccccc2)C=C(Nc2ccccc2)C1=Nc1ccccc1 : 1.65

// recorded growth inhibition for CCC12CCCNC1c1c(n(C)c3ccccc13)C(C(=O)OC)C2 (stereo not drawn) : -9.05

Reference source for all entries: PubChem BioAssay (NCI)
